Values were extracted from patent US20200247761A1.

system: mTNF-α secretion from LPS-stimulated RAW264.7 monocytes; experiment: LPS induced mTNF-α release from RAW264.7 cells (ELISA); assay type: cell-based; details: Mus musculus, RAW264.7; Table 2; 10 μM; read-out: inhibition of LPS induced mTNF-α release from RAW264.7 cells
Listing: inhibition at 10 µM of selected molecules

Use these answered entries as a reference point.
C=C(C)C(=O)N(c1ccc(F)cc1Cl)S(=O)(=O)c1ccccc1 ... ~70%
C=CC(=O)N1CCCc2cccc(S(=O)(=O)Nc3ccc(F)cc3F)c21 ... 85 to 100%

Field inhibition at 10 µM (entry "C=CC(=O)N(C1CC1)S(=O)(=O)c1ccc(F)cc1Cl" ) reads 85 to 100%

Field inhibition at 10 µM (entry "C=CC(=O)N(c1ccc(F)cc1Cl)S(=O)(=O)c1ccc(F)cc1Cl" ) reads 85 to 100%

Field inhibition at 10 µM (entry "C=CC(=O)N1CCCc2cccc(S(=O)(=O)Nc3ccc(F)cc3Cl)c21" ) reads 85 to 100%

Field inhibition at 10 µM (entry "C=CC(=O)N(c1ccc(F)cc1Cl)S(=O)(=O)c1ccccc1S(C)(=O)=O" ) reads 85 to 100%

Field inhibition at 10 µM (entry "C=CC(=O)N(c1ccc(F)cc1Cl)S(=O)(=O)c1ccccc1[N+](=O)[O-]" ) reads ~40%

Field inhibition at 10 µM (entry "C=CC(=O)N(c1ccc(F)cc1Cl)S(=O)(=O)N1CCCC1" ) reads 85 to 100%

Field inhibition at 10 µM (entry "C=C(C)C(=O)Nc1ccccc1S(=O)(=O)Nc1ccc(F)cc1Cl" ) reads ~40%

Field inhibition at 10 µM (entry "C=CC(=O)N(c1ccc(F)cc1Cl)S(=O)(=O)N1CCC[C@H]1C(=O)OC" ) reads 85 to 100%
